Biological target: MAP3K6 (Homo sapiens)
Sequence (O95382 1-1288): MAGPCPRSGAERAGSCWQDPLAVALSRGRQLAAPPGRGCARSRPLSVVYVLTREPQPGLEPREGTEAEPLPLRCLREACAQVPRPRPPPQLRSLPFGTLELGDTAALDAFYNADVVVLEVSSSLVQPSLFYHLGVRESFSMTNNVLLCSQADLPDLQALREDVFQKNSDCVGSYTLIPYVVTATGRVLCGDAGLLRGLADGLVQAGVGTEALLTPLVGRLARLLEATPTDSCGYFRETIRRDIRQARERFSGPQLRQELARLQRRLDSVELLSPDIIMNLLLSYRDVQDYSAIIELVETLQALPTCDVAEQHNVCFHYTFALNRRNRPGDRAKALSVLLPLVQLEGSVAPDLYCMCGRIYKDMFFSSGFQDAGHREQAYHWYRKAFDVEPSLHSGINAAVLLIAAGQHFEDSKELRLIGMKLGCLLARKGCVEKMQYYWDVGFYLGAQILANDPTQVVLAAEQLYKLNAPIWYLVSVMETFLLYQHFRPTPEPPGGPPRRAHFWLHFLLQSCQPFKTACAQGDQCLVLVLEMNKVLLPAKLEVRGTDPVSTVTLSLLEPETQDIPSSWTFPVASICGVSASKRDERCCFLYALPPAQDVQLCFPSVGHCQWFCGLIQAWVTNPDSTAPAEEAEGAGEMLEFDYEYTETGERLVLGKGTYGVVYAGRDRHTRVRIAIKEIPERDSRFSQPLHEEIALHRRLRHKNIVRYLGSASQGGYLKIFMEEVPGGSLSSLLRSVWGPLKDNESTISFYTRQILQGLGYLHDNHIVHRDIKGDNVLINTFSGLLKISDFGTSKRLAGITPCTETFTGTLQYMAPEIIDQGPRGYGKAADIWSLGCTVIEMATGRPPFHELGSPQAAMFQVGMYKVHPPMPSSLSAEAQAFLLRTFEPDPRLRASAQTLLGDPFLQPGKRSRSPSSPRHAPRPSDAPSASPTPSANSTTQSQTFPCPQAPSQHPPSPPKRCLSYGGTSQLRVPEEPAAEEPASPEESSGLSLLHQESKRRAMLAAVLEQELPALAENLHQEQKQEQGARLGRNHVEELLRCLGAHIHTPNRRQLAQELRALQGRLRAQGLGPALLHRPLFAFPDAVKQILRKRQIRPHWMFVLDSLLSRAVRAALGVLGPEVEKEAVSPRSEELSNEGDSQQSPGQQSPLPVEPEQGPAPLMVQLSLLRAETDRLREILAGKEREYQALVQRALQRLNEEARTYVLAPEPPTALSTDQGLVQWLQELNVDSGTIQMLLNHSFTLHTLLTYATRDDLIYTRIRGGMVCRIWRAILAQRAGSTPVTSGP
Assay: biochemical
Design: species or system HEK293/K-562/placenta mixed human extract; Kinobeads chemoproteomic competition binding, quantified by TMT LC-MS/MS, dose response up to 20 uM
pIC50: −log10 of the molar value.
attribute.measured: pIC50

Req: Given the entry COc1nc(N[C@H]2CC[C@H](NS(=O)(=O)CC(C)C)CC2)nc2[nH]nc(N3CCOC[C@H]3C)c12 [compound 39] , report its measured pIC50.
Resp: ≤ 4.70

###

Molecular target: UniProtKB Q8IW41
Sequence (Q8IW41 1-473): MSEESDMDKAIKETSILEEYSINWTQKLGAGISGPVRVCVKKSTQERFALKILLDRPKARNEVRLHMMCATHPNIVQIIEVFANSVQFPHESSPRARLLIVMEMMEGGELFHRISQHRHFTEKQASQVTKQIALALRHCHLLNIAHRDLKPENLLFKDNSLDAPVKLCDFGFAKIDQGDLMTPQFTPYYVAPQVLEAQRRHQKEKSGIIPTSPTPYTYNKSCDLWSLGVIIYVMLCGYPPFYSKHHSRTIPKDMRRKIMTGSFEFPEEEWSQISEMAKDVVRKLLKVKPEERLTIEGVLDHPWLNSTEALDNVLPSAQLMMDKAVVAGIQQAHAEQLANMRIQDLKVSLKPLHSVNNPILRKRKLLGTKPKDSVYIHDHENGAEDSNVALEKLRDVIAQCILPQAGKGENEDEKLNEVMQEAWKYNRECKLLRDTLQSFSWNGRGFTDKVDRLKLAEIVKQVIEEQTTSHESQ
Experiment: biochemical
Set-up: species or system HEK293/K-562/placenta mixed human extract; Kinobeads chemoproteomic competition binding, quantified by TMT LC-MS/MS, dose response up to 20 uM
attribute.measured: pIC50
Give only the number. pIC50 is defined as minus log10 of concentration in molar units.

Req: Given the entry COc1nc(N[C@H]2CC[C@H](NS(=O)(=O)CC(C)C)CC2)nc2[nH]nc(N3CCOC[C@H]3C)c12 [compound 39] , report its measured pIC50.
Resp: 5.21

###

Molecular target: PTK2B (Homo sapiens, UniProt Q14289)
Sequence (Q14289 whole entry): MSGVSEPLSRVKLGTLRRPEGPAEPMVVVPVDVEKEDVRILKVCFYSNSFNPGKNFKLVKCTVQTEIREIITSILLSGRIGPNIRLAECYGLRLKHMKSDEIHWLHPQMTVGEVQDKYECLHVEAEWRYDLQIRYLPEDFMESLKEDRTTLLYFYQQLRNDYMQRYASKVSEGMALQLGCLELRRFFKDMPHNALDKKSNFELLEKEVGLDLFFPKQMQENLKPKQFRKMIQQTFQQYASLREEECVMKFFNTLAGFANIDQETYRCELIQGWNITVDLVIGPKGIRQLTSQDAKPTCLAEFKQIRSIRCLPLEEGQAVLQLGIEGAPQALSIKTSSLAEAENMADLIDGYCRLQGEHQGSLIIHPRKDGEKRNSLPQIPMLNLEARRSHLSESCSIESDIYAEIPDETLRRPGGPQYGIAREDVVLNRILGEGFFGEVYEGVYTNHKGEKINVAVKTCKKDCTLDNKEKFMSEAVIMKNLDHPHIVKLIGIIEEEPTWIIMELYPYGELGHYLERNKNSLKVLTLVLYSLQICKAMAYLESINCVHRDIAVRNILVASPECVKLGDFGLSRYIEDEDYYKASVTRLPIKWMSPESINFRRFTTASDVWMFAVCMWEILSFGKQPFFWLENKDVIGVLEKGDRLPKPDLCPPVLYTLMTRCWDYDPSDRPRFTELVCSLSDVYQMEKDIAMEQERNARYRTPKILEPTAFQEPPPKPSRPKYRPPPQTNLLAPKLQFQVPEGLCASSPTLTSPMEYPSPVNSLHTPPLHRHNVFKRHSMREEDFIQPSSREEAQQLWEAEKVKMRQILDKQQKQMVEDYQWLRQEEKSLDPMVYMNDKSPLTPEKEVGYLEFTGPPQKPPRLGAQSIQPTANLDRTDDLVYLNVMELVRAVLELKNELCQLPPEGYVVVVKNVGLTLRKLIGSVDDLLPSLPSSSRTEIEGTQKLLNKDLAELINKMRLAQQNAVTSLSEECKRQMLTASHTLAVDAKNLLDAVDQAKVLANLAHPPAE
Assay: biochemical
Design: species or system HEK293/K-562/placenta mixed human extract; Kinobeads chemoproteomic competition binding, quantified by TMT LC-MS/MS, dose response up to 20 uM
pIC50: −log10 of the molar value.
attribute.measured: pIC50

Req: Given the entry COc1ccccc1-c1n[nH]c2nc(N[C@H]3CC[C@H](NS(=O)(=O)CCC(F)(F)F)CC3)nc(OC)c12 [compound 31] , report its measured pIC50.
Resp: ≤ 4.70

###

Biological target: NEK2 (Homo sapiens)
Sequence (P51955 1-445): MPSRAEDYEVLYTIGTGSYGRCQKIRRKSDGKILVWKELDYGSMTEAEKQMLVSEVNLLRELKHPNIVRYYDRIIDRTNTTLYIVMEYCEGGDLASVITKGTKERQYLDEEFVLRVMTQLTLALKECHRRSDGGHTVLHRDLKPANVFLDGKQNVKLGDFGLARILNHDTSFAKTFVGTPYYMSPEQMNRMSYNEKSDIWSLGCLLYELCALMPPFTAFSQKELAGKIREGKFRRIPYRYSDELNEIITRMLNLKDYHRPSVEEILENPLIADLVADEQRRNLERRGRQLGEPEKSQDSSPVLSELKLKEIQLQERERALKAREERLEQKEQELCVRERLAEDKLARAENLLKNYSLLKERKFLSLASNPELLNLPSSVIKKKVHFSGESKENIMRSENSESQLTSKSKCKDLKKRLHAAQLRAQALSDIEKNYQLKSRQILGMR
Assay: biochemical
Design: species or system HEK293/K-562/placenta mixed human extract; Kinobeads chemoproteomic competition binding, quantified by TMT LC-MS/MS, dose response up to 20 uM
attribute.measured: IC50

Req: Given the entry COc1ccccc1-c1n[nH]c2nc(N[C@H]3CC[C@H](NS(=O)(=O)CCC(F)(F)F)CC3)nc(OC)c12 , report its measured IC50.
Resp: ≥ 20 µM

###

Biological target: TEK (Homo sapiens, UniProt Q02763)
Sequence (Q02763 whole entry): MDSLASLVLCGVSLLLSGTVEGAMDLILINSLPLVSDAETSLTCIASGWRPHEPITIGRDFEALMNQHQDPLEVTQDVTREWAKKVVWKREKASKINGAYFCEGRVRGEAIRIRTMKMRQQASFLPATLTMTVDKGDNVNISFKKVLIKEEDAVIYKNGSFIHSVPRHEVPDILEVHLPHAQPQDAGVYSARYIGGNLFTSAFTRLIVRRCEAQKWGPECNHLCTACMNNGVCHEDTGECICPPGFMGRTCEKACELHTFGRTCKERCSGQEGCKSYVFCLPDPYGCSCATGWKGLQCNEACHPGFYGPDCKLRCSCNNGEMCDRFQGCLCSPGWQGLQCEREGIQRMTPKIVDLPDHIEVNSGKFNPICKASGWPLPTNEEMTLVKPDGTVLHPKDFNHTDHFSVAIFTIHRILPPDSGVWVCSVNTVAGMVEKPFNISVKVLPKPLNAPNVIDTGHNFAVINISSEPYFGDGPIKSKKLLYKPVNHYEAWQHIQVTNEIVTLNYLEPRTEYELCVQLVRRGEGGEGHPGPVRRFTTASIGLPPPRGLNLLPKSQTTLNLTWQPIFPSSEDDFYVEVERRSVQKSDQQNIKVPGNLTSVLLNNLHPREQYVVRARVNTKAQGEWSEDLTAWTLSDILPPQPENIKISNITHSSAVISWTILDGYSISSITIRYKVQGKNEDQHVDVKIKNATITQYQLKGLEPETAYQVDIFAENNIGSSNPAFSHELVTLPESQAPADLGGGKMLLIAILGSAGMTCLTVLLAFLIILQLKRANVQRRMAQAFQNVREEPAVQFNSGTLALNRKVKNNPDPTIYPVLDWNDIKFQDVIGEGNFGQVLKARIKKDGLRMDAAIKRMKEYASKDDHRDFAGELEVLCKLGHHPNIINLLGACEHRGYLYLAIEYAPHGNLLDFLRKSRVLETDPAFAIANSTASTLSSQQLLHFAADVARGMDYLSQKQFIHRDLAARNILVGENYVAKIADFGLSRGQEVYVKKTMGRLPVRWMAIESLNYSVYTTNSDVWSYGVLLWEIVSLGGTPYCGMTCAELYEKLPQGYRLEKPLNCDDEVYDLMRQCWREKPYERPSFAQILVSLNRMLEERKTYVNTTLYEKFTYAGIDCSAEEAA
Assay: biochemical
Design: species or system HEK293/K-562/placenta mixed human extract; Kinobeads chemoproteomic competition binding, quantified by TMT LC-MS/MS, dose response up to 20 uM
attribute.measured: IC50

Req: Reported IC50 for TEK (Homo sapiens, UniProt Q02763), given COc1ccccc1-c1n[nH]c2nc(N[C@H]3CC[C@H](NS(=O)(=O)CCC(F)(F)F)CC3)nc(OC)c12 ?
Resp: ≥ 20 µM

###

Target: UniProt O00764
Sequence (O00764 whole entry): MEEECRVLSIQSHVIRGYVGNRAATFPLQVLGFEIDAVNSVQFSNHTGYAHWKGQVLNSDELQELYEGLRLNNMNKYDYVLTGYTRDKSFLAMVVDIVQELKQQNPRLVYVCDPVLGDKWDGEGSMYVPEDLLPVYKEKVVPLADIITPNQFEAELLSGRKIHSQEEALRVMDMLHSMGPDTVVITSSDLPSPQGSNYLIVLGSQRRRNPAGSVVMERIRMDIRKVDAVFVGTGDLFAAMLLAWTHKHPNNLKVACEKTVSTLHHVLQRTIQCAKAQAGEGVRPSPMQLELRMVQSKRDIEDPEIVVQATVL
Assay: biochemical
Parameters: species or system HEK293/K-562/placenta mixed human extract; Kinobeads chemoproteomic competition binding, quantified by TMT LC-MS/MS, dose response up to 20 uM
attribute.measured: IC50

Req: Given the entry COc1nc(N[C@H]2CC[C@H](NS(=O)(=O)CC(C)C)CC2)nc2[nH]nc(N3CCOC[C@H]3C)c12 , report its measured IC50.
Resp: ≥ 20 µM

###

Target: MAP3K6 (Homo sapiens, UniProt O95382)
Test: biochemical
Parameters: species or system HEK293/K-562/placenta mixed human extract; Kinobeads chemoproteomic competition binding, quantified by TMT LC-MS/MS, dose response up to 20 uM
pIC50: −log10 of the molar value.
attribute.measured: pIC50

Req: Given the entry COc1ccccc1-c1n[nH]c2nc(N[C@H]3CC[C@H](NS(=O)(=O)CCC(F)(F)F)CC3)nc(OC)c12 [compound 31] , report its measured pIC50.
Resp: ≤ 4.70

###

Target: PRKAA2 (Homo sapiens, UniProt P54646)
Sequence (P54646 whole entry): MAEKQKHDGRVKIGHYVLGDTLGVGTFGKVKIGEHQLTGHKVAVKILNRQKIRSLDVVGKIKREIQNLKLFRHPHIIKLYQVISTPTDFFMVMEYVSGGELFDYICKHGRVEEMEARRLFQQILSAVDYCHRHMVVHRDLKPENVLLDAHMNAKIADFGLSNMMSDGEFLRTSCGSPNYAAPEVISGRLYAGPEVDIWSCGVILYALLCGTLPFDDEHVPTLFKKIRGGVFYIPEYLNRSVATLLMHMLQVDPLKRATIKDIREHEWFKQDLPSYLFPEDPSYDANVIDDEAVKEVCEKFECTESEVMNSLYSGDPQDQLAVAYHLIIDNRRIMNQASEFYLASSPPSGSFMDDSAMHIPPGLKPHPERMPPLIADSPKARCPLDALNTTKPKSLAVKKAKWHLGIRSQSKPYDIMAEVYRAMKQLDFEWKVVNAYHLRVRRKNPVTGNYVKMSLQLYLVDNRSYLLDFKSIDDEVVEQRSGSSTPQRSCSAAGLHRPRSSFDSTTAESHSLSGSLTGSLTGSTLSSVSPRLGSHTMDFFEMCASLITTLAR
Assay: biochemical
Design: species or system HEK293/K-562/placenta mixed human extract; Kinobeads chemoproteomic competition binding, quantified by TMT LC-MS/MS, dose response up to 20 uM
pIC50: −log10 of the molar value.
attribute.measured: pIC50

Req: Given the entry COc1ccccc1-c1n[nH]c2nc(N[C@H]3CC[C@H](NS(=O)(=O)CCC(F)(F)F)CC3)nc(OC)c12 , report its measured pIC50.
Resp: ≤ 4.70

###

Molecular target: WEE1 (Homo sapiens, UniProt P30291)
Sequence (P30291 whole entry): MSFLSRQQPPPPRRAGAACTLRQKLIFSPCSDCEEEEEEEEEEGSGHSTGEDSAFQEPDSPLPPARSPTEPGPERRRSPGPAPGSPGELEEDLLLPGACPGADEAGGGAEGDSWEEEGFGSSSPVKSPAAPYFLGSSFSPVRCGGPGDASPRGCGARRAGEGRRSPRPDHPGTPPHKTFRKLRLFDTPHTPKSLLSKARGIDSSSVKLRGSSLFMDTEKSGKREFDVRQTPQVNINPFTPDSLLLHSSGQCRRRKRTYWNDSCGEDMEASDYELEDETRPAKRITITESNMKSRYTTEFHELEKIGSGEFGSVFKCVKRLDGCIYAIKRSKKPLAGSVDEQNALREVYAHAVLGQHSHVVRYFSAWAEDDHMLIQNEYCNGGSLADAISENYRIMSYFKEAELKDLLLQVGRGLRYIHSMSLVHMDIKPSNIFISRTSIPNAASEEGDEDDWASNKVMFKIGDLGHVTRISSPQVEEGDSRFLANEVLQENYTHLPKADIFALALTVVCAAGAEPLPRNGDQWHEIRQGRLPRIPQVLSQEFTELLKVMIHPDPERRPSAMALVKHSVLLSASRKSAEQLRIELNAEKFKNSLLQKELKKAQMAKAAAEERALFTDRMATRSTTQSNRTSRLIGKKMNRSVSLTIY
Assay: biochemical
Design: species or system HEK293/K-562/placenta mixed human extract; Kinobeads chemoproteomic competition binding, quantified by TMT LC-MS/MS, dose response up to 20 uM
attribute.measured: IC50

Req: Given the entry COc1nc(N[C@H]2CC[C@H](NS(=O)(=O)CC(C)C)CC2)nc2[nH]nc(N3CCOC[C@H]3C)c12 , report its measured IC50.
Resp: ≥ 20 µM
